Each recorded value in this set is attributed to ChEMBL document CHEMBL5528066.

- PROTOCOL NOTES: Drug concentration in male Sprague-Dawley rat intestine at 45 mg/kg, po measured after 8 hrs by LC-MS/MS analysis
- Type: ADME, organism-based
- ASSAY CONDITIONS: read-out: Ct
ENDPOINT: concentration at 8 h (ng/g)
Number only, in ng/g; omit the unit.

Prompt line: What concentration at 8 h value was documented for this molecule, N#CC1(C(=O)NCCC2CCN(Cc3ccccc3)CC2)CC2(Br)c3ccccc3C1c1ccccc12 (racemic) ?
Response line: 688

###

- System: MDR1
- PROTOCOL NOTES: Apparent permeability across apical to basolateral side in MDCKII-MDR1 cells assessed as drug recovery at 1 uM incubated for 2 hrs by LC-MS/MS analysis
- Assay type: ADME, cell-based, Canis lupus familiaris
- ASSAY CONDITIONS: dog, MDCK-MDR1, read-out: Drug recovery
ENDPOINT: recovery at 2 h, 1 µM (%)
Quick note: give the figure in %, leave out the unit.

Prompt line: Entry N#CC1(C(=O)NCCC2CCN(Cc3ccccc3)CC2)CC2(Br)c3ccccc3C1c1ccccc12 (racemic) : reported recovery at 2 h, 1 µM = ?
Response line: 96

###

- PROTOCOL NOTES: Drug concentration in female Sprague-Dawley rat spleen at 45 mg/kg, po measured after 8 hrs by LC-MS/MS analysis
- Assay type: ADME, organism-based
- ASSAY CONDITIONS: read-out: Ct
ENDPOINT: concentration at 8 h
Reply with the number, then its unit.

Prompt line: What does the record list as concentration at 8 h for N#CC1(C(=O)NCCC2CCN(Cc3ccccc3)CC2)CC2(Br)c3ccccc3C1c1ccccc12 (racemic) ?
Response line: 2330 ng/g

###

- PROTOCOL NOTES: Drug concentration in female Sprague-Dawley rat intestine at 45 mg/kg, po measured after 8 hrs by LC-MS/MS analysis
- Type: ADME, organism-based
- ASSAY CONDITIONS: read-out: Ct
ENDPOINT: concentration at 8 h
# number then unit; no other words

Prompt line: Look up concentration at 8 h for this molecule: N#CC1(C(=O)NCCC2CCN(Cc3ccccc3)CC2)CC2(Br)c3ccccc3C1c1ccccc12 (racemic)
Response line: 442 ng/g

###

- PROTOCOL NOTES: Drug concentration in male Sprague-Dawley rat liver at 45 mg/kg, po measured after 8 hrs by LC-MS/MS analysis
- Format: ADME, organism-based
- ASSAY CONDITIONS: read-out: Ct
ENDPOINT: concentration at 8 h (ng/g)
I only need the number, in ng/g, no unit after it.

Prompt line: Tell me the measured concentration at 8 h of N#CC1(C(=O)NCCC2CCN(Cc3ccccc3)CC2)CC2(Br)c3ccccc3C1c1ccccc12 (racemic) , please.
Response line: 779

###

- PROTOCOL NOTES: Drug concentration in male Sprague-Dawley rat brain at 45 mg/kg, po measured after 8 hrs by LC-MS/MS analysis
- Assay type: ADME, organism-based
- ASSAY CONDITIONS: read-out: Ct
ENDPOINT: concentration at 8 h (ng/g)
Unit ng/g implied. Number only.

Prompt line: Record request: concentration at 8 h value, item N#CC1(C(=O)NCCC2CCN(Cc3ccccc3)CC2)CC2(Br)c3ccccc3C1c1ccccc12 (racemic)
Response line: 9.2

###

- PROTOCOL NOTES: Drug concentration in male Sprague-Dawley rat kidney at 45 mg/kg, po measured after 8 hrs by LC-MS/MS analysis
- Format: ADME, organism-based
- ASSAY CONDITIONS: read-out: Ct
ENDPOINT: concentration at 8 h (ng/g)
Reply with just the number (in ng/g).

Prompt line: Requested read-out: concentration at 8 h. Entry: N#CC1(C(=O)NCCC2CCN(Cc3ccccc3)CC2)CC2(Br)c3ccccc3C1c1ccccc12 (racemic)
Response line: 85.1

###

- System: Hs 683
- PROTOCOL NOTES: Inhibition of sphere formation in human Hs 683 cells incubated for 168 hrs by microscopic analysis
- Type: functional, cell-based
- ASSAY CONDITIONS: Hs 683, 168 h
ENDPOINT: pIC50
Expect pIC50 as a plain number equal to -log10 of the molar concentration.

Prompt line: Which value of pIC50 has been reported for N#CC1(C(=O)NCCC2CCN(Cc3ccccc3)CC2)CC2(Br)c3ccccc3C1c1ccccc12 (racemic) in the records?
Response line: 5.68

###

- Test system: MDR1
- PROTOCOL NOTES: Apparent permeability across basolateral to apical side in MDCKII-MDR1 cells at 1 uM incubated for 2 hrs by LC-MS/MS analysis
- Format: ADME, cell-based, Canis lupus familiaris
- ASSAY CONDITIONS: dog, MDCK-MDR1
ENDPOINT: Papp B→A at 2 h, 1 µM (nm/s)
Only the number, expressed in nm/s, is required.

Prompt line: Param item = N#CC1(C(=O)NCCC2CCN(Cc3ccccc3)CC2)CC2(Br)c3ccccc3C1c1ccccc12 (racemic) ; retrieve measured Papp B→A at 2 h, 1 µM.
Response line: 40.9

###

- PROTOCOL NOTES: Drug concentration in female Sprague-Dawley rat liver at 45 mg/kg, po measured after 8 hrs by LC-MS/MS analysis
- Format: ADME, organism-based
- ASSAY CONDITIONS: read-out: Ct
ENDPOINT: concentration at 8 h
Value and unit, in that order.

Prompt line: Would you mind telling me what concentration at 8 h value was observed for N#CC1(C(=O)NCCC2CCN(Cc3ccccc3)CC2)CC2(Br)c3ccccc3C1c1ccccc12 (racemic) ?
Response line: 1400 ng/g

###

- PROTOCOL NOTES: Drug concentration in female Sprague-Dawley rat brain at 45 mg/kg, po measured after 8 hrs by LC-MS/MS analysis
- Format: ADME, organism-based
- ASSAY CONDITIONS: read-out: Ct
ENDPOINT: concentration at 8 h (ng/g)
Respond with the bare value in ng/g.

Prompt line: Quick check: concentration at 8 h of N#CC1(C(=O)NCCC2CCN(Cc3ccccc3)CC2)CC2(Br)c3ccccc3C1c1ccccc12 (racemic) ?
Response line: 56.1

###

- Test system: HeLa
- PROTOCOL NOTES: Antiproliferative activity against human HeLa cells assessed as inhibition of cell growth incubated for 72 hrs by CCK-8 assay
- Format: functional, cell-based
ENDPOINT: IC50
Remember to quote the unit after the number.

Prompt line: What measured IC50 goes with N#CC1(C(=O)NCCC2CCN(Cc3ccccc3)CC2)CC2(Br)c3ccccc3C1c1ccccc12 (racemic) ?
Response line: 8.13 µM

###

- System: MDR1
- PROTOCOL NOTES: Efflux ratio of apparent permeability across basolateral to apical side over apical to basolateral side in MDCKII-MDR1 cells at 1 uM incubated for 2 hrs by LC-MS/MS analysis
- Type: ADME, cell-based, Canis lupus familiaris
- ASSAY CONDITIONS: dog, MDCK-MDR1
ENDPOINT: efflux ratio at 2 h, 1 µM
Returns: the value as a bare number; no unit string appended.

Prompt line: For the compound shown here, N#CC1(C(=O)NCCC2CCN(Cc3ccccc3)CC2)CC2(Br)c3ccccc3C1c1ccccc12 (racemic) , give the reported efflux ratio at 2 h, 1 µM.
Response line: 3.25

###

- PROTOCOL NOTES: Drug concentration in male Sprague-Dawley rat lung at 45 mg/kg, po measured after 8 hrs by LC-MS/MS analysis
- Type: ADME, organism-based
- ASSAY CONDITIONS: read-out: Ct
ENDPOINT: concentration at 8 h (ng/g)
The figure you give is taken to be in ng/g; do not add the unit.

Prompt line: Which value of concentration at 8 h has been reported for N#CC1(C(=O)NCCC2CCN(Cc3ccccc3)CC2)CC2(Br)c3ccccc3C1c1ccccc12 (racemic) in the records?
Response line: 2050

###

- PROTOCOL NOTES: Drug concentration in female Sprague-Dawley rat stomach at 45 mg/kg, po measured after 8 hrs by LC-MS/MS analysis
- Format: ADME, organism-based
- ASSAY CONDITIONS: read-out: Ct
ENDPOINT: concentration at 8 h (ng/g)
Give the value, in units of ng/g, as a plain number.

Prompt line: Query (compound): N#CC1(C(=O)NCCC2CCN(Cc3ccccc3)CC2)CC2(Br)c3ccccc3C1c1ccccc12 (racemic) ; field requested: concentration at 8 h
Response line: 4370

###

- PROTOCOL NOTES: Drug concentration in female Sprague-Dawley rat heart at 45 mg/kg, po measured after 8 hrs by LC-MS/MS analysis
- Type: ADME, organism-based
- ASSAY CONDITIONS: read-out: Ct
ENDPOINT: concentration at 8 h (ng/g)
Respond numerically; units are ng/g and should not be typed.

Prompt line: Can you share its concentration at 8 h? I mean this compound: N#CC1(C(=O)NCCC2CCN(Cc3ccccc3)CC2)CC2(Br)c3ccccc3C1c1ccccc12 (racemic)
Response line: 783

###

- PROTOCOL NOTES: Drug concentration in male Sprague-Dawley rat heart at 45 mg/kg, po measured after 8 hrs by LC-MS/MS analysis
- Format: ADME, organism-based
- ASSAY CONDITIONS: read-out: Ct
ENDPOINT: concentration at 8 h (ng/g)
Your answer should be a plain number; it is taken to be in ng/g.

Prompt line: // lookup concentration at 8 h for N#CC1(C(=O)NCCC2CCN(Cc3ccccc3)CC2)CC2(Br)c3ccccc3C1c1ccccc12 (racemic)
Response line: 193
